Study the reported Ki values for Coagulation factor X (Homo sapiens) given below; they originate from different publications.
MEASURED ENDPOINT: Ki (nM)

Consider the reported Ki for these compounds:
>>> quantitative_readout("COC(=O)[C@H](Cc1cccc(C(=N)N)c1)[C@@H](C)NC(=O)c1ccc(-c2ccncc2)cc1")
0.5
>>> quantitative_readout("CC(C)(C)OC(=O)N[C@H](CO)C(=O)NCC(=O)NCc1ccc(C(=N)N)cc1")
140000
>>> quantitative_readout("CN1CC(C)(C)N=C1c1cccc(Oc2cc(C(=O)O)cc(Oc3cc(C(=N)N)ccc3O)n2)c1")
810
>>> quantitative_readout("Cc1ccc(NC(=O)c2sc3ccccc3c2Cl)c(C(=O)Nc2ccc(CN)cc2)c1")
1400
>>> quantitative_readout("Nc1cc(C2=NOC(CNS(=O)(=O)c3ccccc3)(C(=O)Nc3ccc(-c4ccccc4S(N)(=O)=O)cn3)C2)ccc1Cl (racemic)")
1.7
>>> quantitative_readout("COc1ccc(-c2cccc(S(=O)(=O)N[C@@H](Cc3cccc(C(=N)N)c3)C(=O)N3CCN(C(=O)NC(C)(C)C)CC3)c2)c(OC)c1")
13
>>> quantitative_readout("Nc1cc(C2=NOC(CNS(=O)(=O)Cc3ccccc3)(C(=O)Nc3ccc(-c4ccccc4S(N)(=O)=O)cn3)C2)ccc1Cl (racemic)")
2.2
>>> quantitative_readout("C[S+]([O-])Cc1nc(Cc2ccccc2)n(CC(=O)N[C@@H](CCCCN)B2O[C@@H]3C[C@@H]4C[C@@H](C4(C)C)[C@]3(C)O2)n1 (stereo partly specified)")
6000

a: Fc1cccc(COc2cccc(NCC3CCN(c4ccncc4)CC3)c2)c1
b: Cc1ccc(NC(=O)c2cc(C)ccc2NC(=O)c2sc3ccccc3c2Cl)cc1
Prompt: Lower value of Ki belongs to which: a or b ? Refer to your chosen item by its label in the answer.
Response: b
(b: 7.1 nM, a: 3830 nM)

###

Field: Ki. System: Coagulation factor X (Homo sapiens, UniProt P00742). Provenance: assorted publications.
MEASURED ENDPOINT: Ki (nM)

Use these answered entries as a reference point.
>>> quantitative_readout("CC1(c2ccccc2)CC(c2cccc(-c3ccc(C(N)=O)cc3C(=O)O)c2)Nc2ccc(C(=N)N)cc21 (single isomer, unassigned; (+))")
2330
>>> quantitative_readout("COC(=O)[C@H]1CN(Cc2ccc(-c3ccccc3S(N)(=O)=O)cc2)C[C@H]1c1cccc(C(=N)N)c1")
170
>>> quantitative_readout("O=C1CN(S(=O)(=O)c2cc3ccc(Cl)cc3s2)CCN1Cc1cc2cc[nH]cc-2n1")
45

I: COc1ccc(-n2nc(C(F)(F)F)cc2C(=O)Cc2ccc(-c3ccccc3CN3CC[C@H](O)C3)cc2)cc1
II: N=C(N)c1ccc(NC(=O)C2CC(c3cccc(C(=N)N)c3)=NO2)cc1 (stereo not drawn)
Prompt: Recorded Ki values differ for I and II ; which one is higher? Your answer should be the label of the entry you select.
Response: II
(II: 270 nM, I: 3.3 nM)

P: CCCNS(=O)(=O)c1ccccc1-c1ccc(NC(=O)C2(Cn3cnnn3)CC(c3cccc(C(=N)N)c3)=NO2)cc1 (stereo not drawn)
Q: CCc1nc2c(N(C)C)c(OC3CCN(C(C)=N)CC3)ccc2n1Cc1ccc2ccc(C(=N)N)cc2c1
R: CCOC(=O)C1CCCCN1c1ccc(N2C[C@H](CNC(=O)c3ccc(Cl)s3)OC2=O)cc1 (mixture of isomers)
S: N=C(N)c1ccc2[nH]cc(C(Cc3ccc(NC(=O)c4ccccc4)cc3)C(=O)Nc3ccc(-n4cnc5ccccc54)cc3)c2c1 (stereo not drawn)
Prompt: Arrange these compounds by their Ki, starting with the largest number. Reply with the labels, ordered as the question asks.
Response: R, S, Q, P

P: CC(=N)N1CCC(C(=O)Nc2cccc(OCc3ccc(F)cc3)c2)CC1
Q: N=C(N)c1ccc(-n2ccc3ccc(NCc4cccc(C(=N)N)c4)cc32)cc1
Prompt: # return whichever of P and Q has the smaller Ki // output: label of the selected item
Response: Q
(Q: 340 nM, P: 57300 nM)

I: CN(C)CCN(C)C(=O)CN(C1CCCN(c2ccc(N3CCCCC3=O)cc2F)C1=O)S(=O)(=O)c1ccc2cc(Cl)ccc2c1 (stereo not drawn)
II: N=C(N)c1ccc2[nH]cc(C(Cc3ccccc3)C(=O)NCc3cccc(C(=O)Nc4nc5ccccc5[nH]4)c3)c2c1 (stereo not drawn)
III: O=C(Nc1ccc(Cl)cc1)c1cc(Cl)cc(O)c1NC(=O)c1sc2ccccc2c1Cl
IV: CCN(CC)c1cccc(Oc2nc(Oc3cccc(C(=N)N)c3)c(F)c(C)c2F)c1
Prompt: Order the 4 compounds from highest to lowest Ki. The labels, placed in the requested order, form the answer.
Response: II, IV, III, I
(II: 2600 nM, IV: 400 nM, III: 3.7 nM, I: 1.7 nM)

###

pKi: −log10 of the molar value.
The entries that follow carry pKi values tested on UniProtKB P00742, drawn from several published reports.
MEASURED ENDPOINT: pKi

>>> quantitative_readout("Cc1c(F)c(Oc2cccc(C(=N)N)c2)nc(Oc2cccc(C(=O)N3CCOCC3)c2)c1F")
5.85

1: N=C(N)c1ccc2c(c1)ncn2CC(=O)Nc1ccc(-c2ccccc2S(N)(=O)=O)cc1
2: CS(=O)(=O)c1ccccc1-c1ccc(CCNS(=O)(=O)c2cc(C(=N)N)ccc2O)c(NCC(=O)O)c1
Prompt: Would you mind telling me which has the lower recorded pKi between 1 and 2 ? Output the label that corresponds to your choice.
Response: 1
(1: 6.40, 2: 8.24)

P: Cc1ccc(NC(=O)c2cc3ccccc3s2)c(C(=O)Nc2ccc(F)cc2)c1
Q: COc1ccc(-n2nc(C(F)(F)F)c3c2C(=O)N(c2ccc(C4(C(=O)N(C)C)CC4)cc2)CC3)cc1
R: N=C(N)c1ccc(O)c(CCCNC(=O)c2ccc(-c3ccccc3)cc2)c1
S: COc1ccc(-n2nc(C(F)(F)F)c3c2C(=O)N(c2ccc(C4(C(=O)Nc5nnn[nH]5)CC4)cc2)CC3)cc1
Prompt: Arrange these molecules by their pKi, starting with the largest number. Response format: the labels, sorted as the prompt asks.
Response: S, Q, R, P

A: N=C(N)c1ccc2[nH]cc(C(Cc3ccccc3)C(=O)Nc3ccc(-n4cnc(-c5ccccc5)c4)cc3)c2c1 (stereo not drawn)
B: COc1cccc(CNC(=O)c2cc3c(O)cccc3n2Cc2cccc(C(=N)N)c2)c1
Prompt: Of the two listed items, A and B , which carries the larger pKi figure? Respond using the label that marks the chosen record.
Response: A

P: CC(=N)N1CCC(Oc2ccc(C(=O)NCCOc3cc(C(=N)N)ccc3CC(=O)C(=O)O)cc2)CC1
Q: N=C(N)c1cccc(CC(NS(=O)(=O)c2cccc(-c3ccncc3)c2)C(=O)N2CCC(CCN)CC2)c1 (racemic)
R: N=C(N)c1cccc(C[C@H](NS(=O)(=O)c2cccc(NC(=O)CCN)c2)C(=O)N2CCC(CCCC(N)=O)CC2)c1
S: Cc1nc2c(C(F)(F)F)nn(-c3ccc4onc(N)c4c3)c2c(=O)n1-c1ccc(-c2ccccc2CNCC2CC2)cc1
T: O=C(Nc1ccc(OCc2ccc(-c3ccccc3)cc2)cc1)C1CCNCC1
Prompt: Ascending by pKi, please: list the molecules accordingly. Form entry: ranked labels (order as requested).
Response: T, R, Q, P, S

###

Literature Ki values, system: Coagulation factor X (Homo sapiens, UniProt P00742).
MEASURED ENDPOINT: Ki (nM)

Record excerpt, results attached:
>>> quantitative_readout("N=C(N)c1ccc(C2=NOC(CC(=O)Nc3cccc(C(=N)N)c3)C2)cc1 (stereo not drawn)")
870
>>> quantitative_readout("Cc1c(F)c(Oc2cccc(C(=N)N)c2)nc(N(C)c2cccc(C(=N)N)c2)c1F")
12
>>> quantitative_readout("Cc1nn(-c2cccc(CN)c2)c2c(F)c(-c3ccc(N4CCCCC4=O)cc3)ccc12")
124

P: N=C(N)c1ccc(CN(NS(=O)(=O)c2ccc3ccccc3c2)C(=O)N2CCCCC2)cc1
Q: COc1ccc(-n2nc(C(F)(F)F)c3c2C(=O)N(c2ccc(N(C)C(C)=O)cc2)CC3)cc1
R: N=C(N)c1cccc(-c2ocnc2C(=O)Nc2ccc(-c3ccccc3S(N)(=O)=O)cc2)c1.O=C(O)C(F)(F)F
S: Cc1c(F)c(Oc2cccc(C(=N)N)c2)nc(Oc2cccc(N3CCOCC3)c2)c1F
Prompt: List items by Ki in falling order. Please list the labels according to the requested order.
Response: P, S, R, Q
(P: 66000 nM, S: 650 nM, R: 2.5 nM, Q: 0.5 nM)

A: COc1ccc2ccc(S(=O)(=O)N[C@H]3CCN(Cc4cc(C(=N)N)ccc4N)C3=O)cc2c1
B: CNC(=O)NC1CCN(C(=O)[C@H](Cc2cccc(C(=N)N)c2)NS(=O)(=O)c2cccc(-c3ccc(OC)cc3OC)c2)CC1
Prompt: Identify the entry with the larger Ki. Options: A and B Returns: label corresponding to the selected item.
Response: B
(B: 23 nM, A: 6 nM)

a: Cc1cccc2c1cc(C(N)=O)n2Cc1cccc(C(=N)N)c1
b: Nc1noc2ccc(-n3nc(C(F)(F)F)cc3C(=O)NC3CCN(c4ccccc4CN4CCC[C@H]4O)CC3)cc12
c: O=C(CN1CCN(S(=O)(=O)c2cc3ccc(Cl)cc3s2)CC1=O)NCCc1cccnc1
Prompt: Endpoint returns the given compounds ordered by ascending Ki. Give me the labels in the order the question wants.
Response: b, c, a

A: CCOc1cc([C@H](Nc2ccc3c(N)nccc3c2)C(=O)NS(=O)(=O)c2ccccc2)ccc1OC(C)C
B: CC(C)c1cc(C(C)C)c(S(=O)(=O)N[C@@H](Cc2cccc(C(=N)N)c2)C(=O)N2CCNCC2)c(C(C)C)c1
Prompt: Lab note: check whether A or B has the lower measured Ki. Please indicate the selected item by its label.
Response: B

a: COc1cc(-n2cnnc2)cc(Cl)c1C(=O)NC[C@@H](c1ccccc1)c1nc2cc(C)c(C)cc2[nH]1
b: CCOc1cc(O[C@@H]2CCOC2)cc(C(Nc2ccc(C(=N)N)cc2)C(=O)O)c1 (stereo partly drawn)
Prompt: Pick one, a or b : lowest reported Ki. Use the label to indicate which entry you chose.
Response: a
(a: 245 nM, b: 9100 nM)
